system: cell surface LDLR activity; assay: Dil-LDL uptake assay in HepG2 naïve cells; format: cell-based, human; conditions: Homo sapiens, 24 h; 10 μM; HepG2 cells; read-out: Dil-LDL uptake (% DMSO Cnt)
observationType: activity at 10 µM (%)
Express the result in % but write the number alone.

molecule	testedTarget	unitTag	activity at 10 µM
CC(C)[C@H](NC(=O)c1ccc(C2(C(F)(F)F)N=N2)cc1)C(=O)N[C@@H](Cc1ccccc1)C(=O)N[C@@H](C)C(=O)NC(CCC(N)=O)C(O)C(F)(F)F (stereo partly drawn)	cell surface LDLR activity	%	207
CCCCCCCCCC(=O)N[C@H](C(=O)N[C@@H](Cc1ccccc1)C(=O)N[C@H](C)C(=O)N[C@@H](CCC(N)=O)C(O)C(F)(F)F)C(C)C (single isomer, unassigned)	cell surface LDLR activity	%	224

Value of activity at 10 µM reported for the molecule CCCCCCCCCC(=O)N[C@H](C(=O)N[C@@H](Cc1ccccc1)C(=O)N[C@H](C(=O)NC(CCC(N)=O)C(O)C(F)(F)F)C(C)C)C(C)C (stereo partly drawn) is 261

Value of activity at 10 µM reported for the molecule CSCC[C@H](NC(=O)c1ccc(-c2ccccc2)cc1)C(=O)N[C@@H](Cc1ccccc1)C(=O)N[C@@H](C)C(=O)NC(CCC(N)=O)C(O)C(F)(F)F (stereo partly drawn) is 172

Value of activity at 10 µM reported for the molecule CC(C)[C@H](NC(=O)c1ccc(-c2ccccc2)cc1)C(=O)N[C@H](Cc1ccccc1)C(=O)N[C@@H](C)C(=O)NC(CCC(N)=O)C(O)C(F)(F)F (stereo partly drawn) is 224

Value of activity at 10 µM reported for the molecule CC(C)[C@H](NC(=O)c1ccc(-c2ccc(F)cc2)cc1)C(=O)N[C@@H](Cc1ccccc1)C(=O)N[C@@H](C)C(=O)NC(CCC(N)=O)C(O)C(F)(F)F (stereo partly drawn) is 254

Value of activity at 10 µM reported for the molecule CCCCCCCCCC(=O)N[C@H](C(=O)N[C@@H](Cc1ccccc1)C(=O)N[C@@H](Cc1ccccc1)C(=O)NC(CCC(N)=O)C(O)C(F)(F)F)C(C)C (stereo partly drawn) is 253

Value of activity at 10 µM reported for the molecule CC(C)[C@H](NC(=O)c1ccc(-c2ccccc2)cc1)C(=O)N[C@@H](Cc1ccccc1)C(=O)N[C@@H](C)C(=O)NC(CCC(N)=O)C(O)C(F)(F)F (stereo partly drawn) is 224

Value of activity at 10 µM reported for the molecule CC(C)[C@H](NC(=O)c1ccc(-c2ccccc2)cc1)C(=O)N[C@@H](Cc1ccccc1)C(=O)NC1(C(=O)N[C@@H](CCC(N)=O)C(O)C(F)(F)F)CCC1 (single isomer, unassigned) is 237

Reference source: patent US20160031935A1
